Hello, the source for this data is ChEMBL document CHEMBL1201862, in case you need it.

- Tested on: PC-3
- EXPERIMENT NOTES: NCI tumour cell line growth inhibition, 48 h
The source made the active and inactive calls. No stated cut-off is given here; in the data, active = GI50 up to about 1.1 µM and inactive = higher. Where a SMILES comes first, the peptide text is derived from it. The star is where a group is joined. Boc = CC(C)(C)OC(=O)*
RECORDED ENDPOINT: GI50

O=c1ccn(CC2(CO)CC(Cc3ccccc3)C2)c(=O)[nH]1 (stereo not given)
> 100 µM (inactive)
Cn1cnnc1SC(F)(F)c1nc2ccccc2o1
> 100 µM (inactive)
O=S1(=O)c2cnccc2N=C(NCc2ccccc2)N1c1ccccc1
75.3 µM (inactive)
COC(=O)CNC(=O)C(Cc1ccccc1)NC(=O)C(CCSC)NC(=O)C(Cc1ccc(O)cc1)NC(=O)OC(C)(C)C (stereo not given) (Boc-YMFG-OMe; configuration not given here)
> 100 µM (inactive)
CC(=O)Nc1ccc2c(c1)/C(=C\c1ccc([N+](C)(C)C)cc1)c1ccccc1-2
19.9 µM (inactive)
Cc1nc(C)c(C(=O)NNC(N)=S)cc1C(=O)NNC(N)=S
> 100 µM (inactive)
O=C1C(c2cnc3ccccc3n2)=C(O)c2ccccc21
> 46.6 µM (inactive)
COc1cc(/C=C2\C(=O)N(Cc3ccccc3)C(c3ccccc3)S2(=O)=O)cc(OC)c1OC (stereo not given)
43 µM (inactive)
CC1(C)CC2C(/C1=N/O)C1(C)CCCC2(C)C1O (stereo not given)
> 100 µM (inactive)

Field: next compound
Measured GI50 (PC-3), entry COc1ccc(N/N=C2\C3=C(CCC(C)(C)O3)C(=O)c3ccccc32)cc1 : 21.9 µM (inactive)
